test: In-vitro Caco-2 permeability study (Example 1B-2)
assayConditions: human
experimentalReadout: Papp A→B at 6 hr, 50 ug/ml

# input Which value of Papp A→B at 6 hr, 50 ug/ml has been reported for Cc1c(C(=O)C(N)=O)c2c(OCC(=O)O)cccc2n1Cc1ccccc1-c1ccccc1 in the records?
# output ~0.166 ×10⁻⁶ cm/s

* * *

testTarget: porcine group 1B PLA2 (pps PLA2) (Sus scrofa)
Construct: purchased
Sequence (P00592 23-146): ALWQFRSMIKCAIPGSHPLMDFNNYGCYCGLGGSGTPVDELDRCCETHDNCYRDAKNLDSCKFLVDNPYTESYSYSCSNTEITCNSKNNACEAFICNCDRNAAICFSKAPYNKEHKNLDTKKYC
test: Fluorimetric PPyrPM assay for group 1B PLA2 inhibition (Example 12)
Format: biochemical
assayConditions: porcine pancreas secreted PLA2; read-out: ILYPSA IC50 pps PLA2
Dear colleague, classification is by IC50, with ranges listed here: lo (below 0.1 µM), mid (0.1 µM to below 0.8 µM), hi (0.8 µM or more)

# input Tag the class for Cc1c(C(=O)C(N)=O)c2c(OC(F)C(=O)O)cccc2n1Cc1ccccc1 (stereo not drawn)
# output hi

# input Assign a category based on measured IC50 for Cc1c(C(=O)C(N)=O)c2c(OC(C(N)=O)C(C)C)cccc2n1Cc1ccccc1 (stereo not drawn) and give only the class name.
# output hi

# input Which bin, given its IC50, does Cc1c(C(=O)C(N)=O)c2c(OCC(=O)O)ccc(N)c2n1Cc1ccccc1 occupy?
# output mid

# input Which class is correct for the following compound? Cc1c(C(=O)C(N)=O)c2c(OCC(=O)NC(CC(=O)O)C(=O)O)nccc2n1Cc1ccccc1 (stereo not drawn)
# output hi

# input Which category fits this record: CCC(Oc1cccc2c1c(C(=O)C(N)=O)c(C)n2Cc1ccccc1)C(=O)O (stereo not drawn)
# output lo

# input Tag the class for CCc1c(C(=O)C(N)=O)c2c(OCC(=O)O)nccc2n1Cc1ccccc1
# output lo

# input Which category fits this record: Cc1c(C(=O)C(N)=O)c2c(OCC(=O)O)cccc2n1CCCCCCCCCCCCOc1ccccc1-c1ccccc1OCCCCCCCCCCCCn1c(C)c(C(=O)C(N)=O)c2c(OCC(=O)O)cccc21
# output mid

# input Using the reported IC50, which band applies to Cc1c(C(=O)C(N)=O)c2c(OC(C(=O)O)C(C)C)cccc2n1CCCCCCCCCCCCn1c(C)c(C(=O)C(N)=O)c2c(OC(C(=O)O)C(C)C)cccc21 (stereo not drawn) ?
# output lo

# input Which bin, given its IC50, does Cc1c(C(=O)C(N)=O)c2c(OCC(=O)NS(C)(=O)=O)cccc2n1Cc1ccccc1 occupy?
# output lo

# input Any idea which band Cc1c(C(=O)C(N)=O)c2c(OCC(=O)O)cccc2n1CCCCCCCCCCCCNCCCCCCCCCCCCn1c(C)c(C(=O)C(N)=O)c2c(OCC(=O)O)cccc21 is in?
# output lo

# input In plain terms, what class is Cc1c(C(=O)C(N)=O)c2c(OCC(=O)O)cccc2n1Cc1ccc2ccccc2c1 ?
# output lo

# input Would you mind sorting Cc1c(C(=O)C(N)=O)c2c(OC(F)C(N)=O)cccc2n1Cc1ccccc1 (stereo not drawn) into the appropriate category?
# output mid

# input Into which category would you place Cc1c(C(=O)C(N)=O)c2c(OCC(=O)O)cccc2n1CCCCCCCCCCCCOc1ccccc1OCCCCCCCCCCCCn1c(C)c(C(=O)C(N)=O)c2c(OCC(=O)O)cccc21 ?
# output mid

# input Band assignment needed for Cc1c(C(=O)C(N)=O)c2c(O)cccc2n1CCCCCCCCCCCCSCCCCCCCCCCCCn1c(C)c(C(=O)C(N)=O)c2c(O)cccc21 please.
# output hi

Value source: patent US20070135383A1
